- Test system: C. parapsilosis 1048737
- measurementDescription: Checkerboard broth microdilution (CLSI)
- Format: cell-based
- statedConditions: Lodderomyces parapsilosis, single agent; isolate 1048737; read-out: MIC
Measured MIC by item
measure: MIC (µg/mL)

- molecule: "CC(=O)N1CCN(c2ccc(OCC3COC(Cn4ccnc4)(c4ccc(Cl)cc4Cl)O3)cc2)CC1 (centres unmarked)"
  measure: "MIC"
  resultUnit: "µg/mL"
  measuredValue: 0.015
- molecule: "C[C@@H](c1ncncc1F)[C@](O)(Cn1cncn1)c1ccc(F)cc1F"
  measure: "MIC"
  resultUnit: "µg/mL"
  measuredValue: 0.008
- molecule: "C[C@@H]1[C@H](O)[C@@H](C)/C=C/C=C/C=C/C=C/C=C/C=C/C=C/[C@H](O[C@@H]2O[C@H](C)[C@@H](O)[C@H](N)[C@@H]2O)C[C@@H]2O[C@](O)(C[C@@H](O)C[C@@H](O)[C@H](O)CC[C@@H](O)C[C@@H](O)CC(=O)O[C@H]1C)C[C@H](O)[C@H]2C(=O)O"
  measure: "MIC"
  resultUnit: "µg/mL"
  measuredValue: 0.5
- molecule: "C[C@@H]1[C@H](O)[C@@H](C)/C=C/C=C/C=C/C=C/C=C/C=C/C=C/[C@H](OC2O[C@H](C)[C@@H](O)[C@H](N)[C@H]2O)CC2O[C@](O)(C[C@@H](O)C[C@@H](O)[C@H](O)CC[C@@H](O)C[C@@H](O)CC(=O)O[C@H]1C)C[C@H](O)[C@H]2C(=O)O (stereo partly drawn) [C2′epiAmB, C2′epi amphotericin B]"
  measure: "MIC"
  resultUnit: "µg/mL"
  measuredValue: 1
- molecule: "OC(Cn1cncn1)(Cn1cncn1)c1ccc(F)cc1F"
  measure: "MIC"
  resultUnit: "µg/mL"
  measuredValue: 0.5
